Kindly state inhibition for each of the entries shown.
- tested-target: SRSF protein kinase 3 (Homo sapiens) (UniProt Q9UPE1);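 further: values are mean inhibition of MSSK1 (alias of SRPK3)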
- Sequence (Q9UPE1 whole entry): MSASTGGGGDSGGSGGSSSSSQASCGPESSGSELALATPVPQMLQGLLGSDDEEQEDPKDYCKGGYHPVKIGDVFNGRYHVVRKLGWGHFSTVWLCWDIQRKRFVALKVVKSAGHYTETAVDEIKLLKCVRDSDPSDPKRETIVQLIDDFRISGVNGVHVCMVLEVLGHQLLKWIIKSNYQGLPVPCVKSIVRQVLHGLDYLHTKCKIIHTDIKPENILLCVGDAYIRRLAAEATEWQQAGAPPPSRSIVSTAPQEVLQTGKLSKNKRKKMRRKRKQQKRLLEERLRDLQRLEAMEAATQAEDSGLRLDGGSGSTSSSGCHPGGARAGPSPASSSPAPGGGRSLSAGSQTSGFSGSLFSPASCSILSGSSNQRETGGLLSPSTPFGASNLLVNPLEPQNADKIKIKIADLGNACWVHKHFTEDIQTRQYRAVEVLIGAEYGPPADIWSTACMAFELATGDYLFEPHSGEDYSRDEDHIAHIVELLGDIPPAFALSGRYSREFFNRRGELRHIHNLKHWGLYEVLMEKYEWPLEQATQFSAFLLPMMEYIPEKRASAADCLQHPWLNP
- measurement-conditions: at 1 µM
Lab book: enter the figure in %, no units written.

Inquiry: Given the entry "COc1cc(Nc2ncc(-c3ccccc3)o2)cc(OC)c1" , report its measured inhibition.
Reply text: 1.14

Inquiry: Request: "O=C1Nc2ccccc2/C1=C1\CCc2cc(O)ccc21"
Reply text: -0.36

Inquiry: Request: "CS(=O)(=O)CCNCc1ccoc1-c1ccc2ncnc(Nc3ccc(OCc4ccccc4)cc3)c2c1"
Reply text: -1.49

Inquiry: Request: "CC1(C)CC(n2cnc(-c3ccc(F)cc3)c2-c2ccnc(N)n2)CC(C)(C)N1"
Reply text: -1.33

Inquiry: Request: "Cc1ccc(-c2cc3c(NC(=O)C4CC4)ncnc3o2)cc1"
Reply text: 0.53

Inquiry: Request: "OCCCNc1nccc(-c2c(-c3ccc(F)cc3)nn3cc(C(F)(F)F)ccc23)n1"
Reply text: 3.54

Inquiry: Request: "CN1CCC(n2cnc(-c3ccc(F)cc3)c2-c2ccnc(NCCO)n2)CC1"
Reply text: 1.7

Inquiry: Request: "Cc1cc(O)cc(C)c1/C=C/c1cncc(C(=O)OC(C)(C)C)c1"
Reply text: -3.77

Inquiry: Request: "CCCNc1cccc(-n2ncc3c(N/N=C/c4ccncc4)ncnc32)c1"
Reply text: 0.97

Inquiry: Request: "CN(C)CCNC(=O)Nc1ccc(N(C)c2ccnc(Nc3ccc(CS(C)(=O)=O)cc3)n2)cc1"
Reply text: -2.85

* * *

- tested-target: cGMP-dependent protein kinase 2 (Homo sapiens);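 further: reported figure is a mean inhibition value against PRKG2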
- measurement-conditions: at 0.1 µM
value-type: inhibition
Show the value, then the unit it is measured in.

Inquiry: Fill in the recorded inhibition for this compound, with cGMP-dependent protein kinase 2 (Homo sapiens) as test system: "COc1ccccc1-c1cc(/C=C2\C(=O)Nc3ncc(Br)cc32)cc(Br)c1O"
Reply text: 1.73%

Inquiry: Request: "Cn1c(-c2nonc2N)nc2cnccc21"
Reply text: 6.01%

Inquiry: Request: "CNC(=O)c1cncc(/C=C/c2ccccc2C)c1"
Reply text: 2.97%

Inquiry: Request: "FC(F)(F)CNc1nccc(-c2cnn3ncccc23)n1"
Reply text: 2.48%

Inquiry: Request: "COc1cccc(Nc2nccc(-c3cnn4ncccc34)n2)c1"
Reply text: 1.94%

Inquiry: Request: "CN1CCC(n2cnc(-c3ccc(F)cc3)c2-c2ccnc(NCCO)n2)CC1"
Reply text: 2.55%

* * *

Kindly state inhibition for each of the entries shown.
- tested-target: Ephrin type-A receptor 4 (Homo sapiens) (UniProt P54764)
- Sequence (P54764 whole entry): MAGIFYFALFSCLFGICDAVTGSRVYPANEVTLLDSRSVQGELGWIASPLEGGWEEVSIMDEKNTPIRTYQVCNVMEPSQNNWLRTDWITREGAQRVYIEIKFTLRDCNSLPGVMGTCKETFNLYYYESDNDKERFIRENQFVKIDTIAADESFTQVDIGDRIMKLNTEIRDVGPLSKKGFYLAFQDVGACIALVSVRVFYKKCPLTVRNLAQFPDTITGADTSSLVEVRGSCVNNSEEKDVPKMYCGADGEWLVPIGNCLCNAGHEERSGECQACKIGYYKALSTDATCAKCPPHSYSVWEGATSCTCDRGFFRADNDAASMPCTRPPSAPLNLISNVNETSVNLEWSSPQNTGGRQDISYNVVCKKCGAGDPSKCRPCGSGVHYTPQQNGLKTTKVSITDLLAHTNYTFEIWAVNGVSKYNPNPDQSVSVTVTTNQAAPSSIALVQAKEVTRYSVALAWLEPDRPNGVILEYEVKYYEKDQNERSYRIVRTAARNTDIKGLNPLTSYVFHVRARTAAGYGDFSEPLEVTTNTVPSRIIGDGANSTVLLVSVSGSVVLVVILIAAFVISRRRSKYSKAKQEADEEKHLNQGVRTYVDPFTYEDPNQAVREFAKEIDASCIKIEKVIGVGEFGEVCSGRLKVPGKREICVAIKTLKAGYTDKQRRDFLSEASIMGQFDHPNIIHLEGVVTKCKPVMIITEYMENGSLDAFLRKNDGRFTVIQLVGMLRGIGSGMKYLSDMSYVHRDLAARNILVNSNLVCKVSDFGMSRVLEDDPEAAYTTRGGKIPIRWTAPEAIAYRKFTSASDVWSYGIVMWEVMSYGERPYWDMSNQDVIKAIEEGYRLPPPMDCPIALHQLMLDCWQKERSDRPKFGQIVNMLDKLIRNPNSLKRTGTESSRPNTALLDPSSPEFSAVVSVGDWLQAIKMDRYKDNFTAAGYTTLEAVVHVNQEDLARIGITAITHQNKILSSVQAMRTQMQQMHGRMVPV
- measurement-conditions: at 1 µM
- Description: GSK_PKIS: EPHA4 mean inhibition at 1 uM [Nanosyn]
Lab book: enter the figure in %, no units written.

Inquiry: Given the entry "Cn1c(-c2nonc2N)nc2cnccc21" , report its measured inhibition.
Reply text: 4.19

Inquiry: Request: "Cc1c2ccc(N(C)c3ccnc(Nc4cccc(S(N)(=O)=O)c4)n3)cc2nn1C"
Reply text: 14.2

Inquiry: Request: "Fc1cccc(COc2ccc(Nc3ncncc3C#Cc3ccccc3)cc2Cl)c1"
Reply text: 13.1

Inquiry: Request: "N#Cc1ccc2c(-c3ccnc(NC4CC4)n3)c(-c3ccc(F)cc3)nn2c1"
Reply text: 15.6

Inquiry: Request: "COc1cccc(-n2ncc3c(N/N=C/c4ccc(C(=O)NCCN(C)C)cc4)ncnc32)c1"
Reply text: 15.9

* * *

- tested-target: Activated CDC42 kinase 1 (Homo sapiens) (UniProt Q07912)
- Sequence (Q07912 whole entry, looked up): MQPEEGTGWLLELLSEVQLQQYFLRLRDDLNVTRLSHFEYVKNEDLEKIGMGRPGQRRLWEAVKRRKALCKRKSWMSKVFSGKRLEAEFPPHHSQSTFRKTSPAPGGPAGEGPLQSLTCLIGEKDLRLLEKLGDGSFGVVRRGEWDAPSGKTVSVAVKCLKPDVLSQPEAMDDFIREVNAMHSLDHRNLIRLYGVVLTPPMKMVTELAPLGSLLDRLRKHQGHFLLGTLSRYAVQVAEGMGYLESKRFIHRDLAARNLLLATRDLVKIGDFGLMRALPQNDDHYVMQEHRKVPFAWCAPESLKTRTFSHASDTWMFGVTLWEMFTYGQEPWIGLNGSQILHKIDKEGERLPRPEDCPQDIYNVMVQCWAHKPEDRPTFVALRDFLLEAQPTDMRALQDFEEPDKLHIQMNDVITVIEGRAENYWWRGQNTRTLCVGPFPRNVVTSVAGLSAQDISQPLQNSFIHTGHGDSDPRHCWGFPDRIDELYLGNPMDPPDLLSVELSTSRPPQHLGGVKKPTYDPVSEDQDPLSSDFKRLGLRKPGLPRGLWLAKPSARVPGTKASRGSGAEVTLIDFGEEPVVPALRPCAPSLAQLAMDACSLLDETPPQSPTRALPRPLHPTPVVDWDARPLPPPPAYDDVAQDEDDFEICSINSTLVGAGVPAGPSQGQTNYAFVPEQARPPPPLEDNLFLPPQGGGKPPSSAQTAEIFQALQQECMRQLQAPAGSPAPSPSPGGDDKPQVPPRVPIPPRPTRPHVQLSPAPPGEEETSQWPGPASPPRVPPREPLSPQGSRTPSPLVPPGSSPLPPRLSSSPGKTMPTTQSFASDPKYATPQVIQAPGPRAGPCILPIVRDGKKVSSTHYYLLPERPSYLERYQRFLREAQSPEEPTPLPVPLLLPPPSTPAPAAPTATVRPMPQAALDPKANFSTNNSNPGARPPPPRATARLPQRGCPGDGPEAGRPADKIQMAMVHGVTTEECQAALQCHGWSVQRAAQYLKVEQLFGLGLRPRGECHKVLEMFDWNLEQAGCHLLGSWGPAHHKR
- measurement-conditions: at 1 µM
- Description: GSK_PKIS: TNK2 mean inhibition at 1 uM [Nanosyn]
value-type: inhibition (%)
Lab book: enter the figure in %, no units written.

Inquiry: Given the entry "COc1cc(N2CCN(C(C)C)CC2)ccc1Nc1nc(Nc2cccc(F)c2C(=O)O)c2cc[nH]c2n1" , report its measured inhibition.
Reply text: 5.95

Inquiry: Request: "CS(=O)(=O)CCNCc1ccc(-c2ccc3ncnc(Nc4ccc(OCc5cccc(C(F)(F)F)c5)cc4)c3c2)o1"
Reply text: 0.96

Inquiry: Request: "COc1cccc(Nc2nccc(-c3cnn4ncccc34)n2)c1"
Reply text: 21.7

Inquiry: Request: "Cc1nnc(-c2cccc(-c3ccc(C(=O)NCC4CC4)cc3)c2)o1"
Reply text: 2.25

Inquiry: Request: "CS(=O)(=O)CCNCc1ccoc1-c1ccc2ncnc(Nc3ccc(OCc4ccccc4)cc3)c2c1"
Reply text: 0.6

* * *

- tested-target: Aurora kinase A (Homo sapiens);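 further: each reported value is a mean percent inhibition of Aurora-A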
- measurement-conditions: at 0.1 µM
value-type: inhibition (%)
Lab book: enter the figure in %, no units written.

Inquiry: Given the entry "COc1ccc2ncn(-c3cc(O[C@H](C)c4ccccc4C(F)(F)F)c(C(N)=O)s3)c2c1" , report its measured inhibition.
Reply text: -0.03

Inquiry: Request: "CCn1c(-c2nonc2N)nc2cncc(C(=O)NCCNC)c21"
Reply text: 3.09

Inquiry: Request: "CCN1CCC(C(=O)Nc2n[nH]c3nnc(-c4cccc(F)c4F)cc23)CC1"
Reply text: 2.41

Inquiry: Request: "CCS(=O)(=O)c1ccc(OC)c(Nc2ncc(-c3cccc(F)c3)o2)c1"
Reply text: 7.01

Inquiry: Request: "COc1cc(Nc2ncc(-c3ccccc3)o2)cc(OC)c1"
Reply text: 5.61

Inquiry: Request: "CS(=O)(=O)CCNCc1ccc(-c2ccc3ncnc(Nc4ccc(OCc5cccc(C(F)(F)F)c5)cc4)c3c2)o1"
Reply text: 3.79

Inquiry: Request: "O=C(O[C@H]1CN[C@H](C#Cc2cc3ncnc(Nc4ccc5c(ccn5Cc5cc(F)ccc5F)c4)c3s2)C1)N1CCOCC1"
Reply text: 4.5

Inquiry: Request: "N#Cc1ccc2c(-c3ccnc(NC4CC4)n3)c(-c3ccc(F)cc3)nn2c1"
Reply text: 0.84

Inquiry: Request: "Cn1c(-c2nonc2N)nc2cnccc21"
Reply text: 1.22

Inquiry: Request: "N#Cc1cccc(Nc2ncc(-c3ccccc3)o2)c1"
Reply text: 1.03

* * *

- System: Epidermal growth factor receptor (Homo sapiens), P00533 [L858R,T790M]
- Sequence (P00533 whole entry T790M/L858R, looked up): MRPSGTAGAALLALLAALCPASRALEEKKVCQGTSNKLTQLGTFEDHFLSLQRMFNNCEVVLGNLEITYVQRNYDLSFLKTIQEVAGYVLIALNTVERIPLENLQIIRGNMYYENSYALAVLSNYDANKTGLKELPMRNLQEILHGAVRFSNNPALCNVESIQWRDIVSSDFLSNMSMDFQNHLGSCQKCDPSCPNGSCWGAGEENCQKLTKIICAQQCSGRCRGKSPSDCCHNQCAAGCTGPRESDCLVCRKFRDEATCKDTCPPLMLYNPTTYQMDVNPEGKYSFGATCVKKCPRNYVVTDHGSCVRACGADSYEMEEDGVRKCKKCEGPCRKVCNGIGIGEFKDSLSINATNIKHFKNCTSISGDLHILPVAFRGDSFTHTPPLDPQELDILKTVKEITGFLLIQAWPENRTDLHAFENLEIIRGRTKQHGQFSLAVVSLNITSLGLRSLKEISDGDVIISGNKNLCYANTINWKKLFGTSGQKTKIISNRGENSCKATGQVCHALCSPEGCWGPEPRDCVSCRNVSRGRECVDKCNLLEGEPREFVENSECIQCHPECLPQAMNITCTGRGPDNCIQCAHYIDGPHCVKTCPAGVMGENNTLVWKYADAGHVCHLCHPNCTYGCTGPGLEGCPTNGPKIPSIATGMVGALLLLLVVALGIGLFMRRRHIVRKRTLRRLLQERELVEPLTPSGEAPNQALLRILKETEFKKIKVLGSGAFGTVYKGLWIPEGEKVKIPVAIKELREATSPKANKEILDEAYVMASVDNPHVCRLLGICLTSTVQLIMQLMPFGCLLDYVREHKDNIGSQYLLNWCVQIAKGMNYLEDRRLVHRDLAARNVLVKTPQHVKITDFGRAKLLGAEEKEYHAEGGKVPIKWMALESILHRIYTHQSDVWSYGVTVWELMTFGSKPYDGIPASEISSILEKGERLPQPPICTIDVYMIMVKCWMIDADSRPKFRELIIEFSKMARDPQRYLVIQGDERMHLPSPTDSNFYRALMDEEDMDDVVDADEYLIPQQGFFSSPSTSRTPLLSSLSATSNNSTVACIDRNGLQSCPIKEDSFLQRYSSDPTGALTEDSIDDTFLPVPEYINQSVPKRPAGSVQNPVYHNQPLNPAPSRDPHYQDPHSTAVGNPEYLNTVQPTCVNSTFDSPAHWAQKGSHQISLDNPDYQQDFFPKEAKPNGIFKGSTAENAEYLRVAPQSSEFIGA
- measurement-conditions: at 1 µM
Kindly state inhibition for each of the entries shown.
Show the value, then the unit it is measured in.

Inquiry: Given the entry "COc1c(C(N)=O)cc(-c2ccc(Cl)cc2)cc1-c1ccc(S(N)(=O)=O)cc1" , report its measured inhibition.
Reply text: 0.63%

Inquiry: Request: "CCCNc1cccc(-n2ncc3c(N/N=C/c4ccncc4)ncnc32)c1"
Reply text: 2.7%

Inquiry: Request: CC1=C(C(=O)Nc2ccc3[nH]nc(C)c3c2)C(c2ccc(C(F)(F)F)cc2)CC(=O)N1 (stereo unspecified)
Reply text: -0.97%

Inquiry: Request: "NS(=O)(=O)c1cccc(N/C=C2\C(=O)Nc3ccccc32)c1"
Reply text: 5.43%

Inquiry: Request: "CN1CCC(n2cnc(-c3ccc(F)cc3)c2-c2ccnc(NCCO)n2)CC1"
Reply text: 5.98%

Inquiry: Request: "COC(=O)Nc1nc2ccc(Oc3ccc(NC(=O)Nc4cc(C(F)(F)F)ccc4F)cc3)cc2s1"
Reply text: -2.5%

* * *

- tested-target: Dual specificity protein kinase CLK2 (Homo sapiens) (UniProt P49760)
- Sequence (P49760 whole entry, looked up): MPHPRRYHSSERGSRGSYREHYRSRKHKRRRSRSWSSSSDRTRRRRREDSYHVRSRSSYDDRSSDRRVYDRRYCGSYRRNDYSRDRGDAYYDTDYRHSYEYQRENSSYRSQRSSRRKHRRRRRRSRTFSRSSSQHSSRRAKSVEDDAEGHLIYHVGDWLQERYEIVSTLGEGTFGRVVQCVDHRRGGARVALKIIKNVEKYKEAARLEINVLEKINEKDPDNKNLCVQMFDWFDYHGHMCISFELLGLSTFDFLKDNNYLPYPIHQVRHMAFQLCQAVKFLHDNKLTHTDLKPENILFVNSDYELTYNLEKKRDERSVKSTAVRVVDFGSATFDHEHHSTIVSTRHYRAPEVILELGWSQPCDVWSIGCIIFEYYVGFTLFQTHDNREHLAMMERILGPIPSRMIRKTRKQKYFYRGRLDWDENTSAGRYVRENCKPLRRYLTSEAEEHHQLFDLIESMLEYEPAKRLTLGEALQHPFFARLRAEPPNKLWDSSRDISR
- measurement-conditions: at 0.1 µM
- Description: GSK_PKIS: CLK2 mean inhibition at 0.1 uM [Nanosyn]
Kindly state inhibition for each of the entries shown.
Lab book: enter the figure in %, no units written.

Inquiry: Given the entry "CC(C)c1ccc(-c2cc(-c3c[nH]nc3-c3ccccn3)ccn2)cc1" , report its measured inhibition.
Reply text: 0.9

Inquiry: Request: "c1cnn2ncc(-c3ccnc(NCCCN4CCOCC4)n3)c2c1"
Reply text: 1.77

Inquiry: Request: "OCCCNc1nccc(-c2c(-c3ccc(F)cc3)nn3cc(C(F)(F)F)ccc23)n1"
Reply text: 0.1

Inquiry: Request: "CS(=O)(=O)Nc1ccc(-c2cc(-c3ccccc3)cc(C(N)=O)c2N)cc1"
Reply text: 0.11

Inquiry: Request: "Cc1cc(O)cc(C)c1/C=C/c1cncc(C(=O)OC(C)(C)C)c1"
Reply text: 0.65

Inquiry: Request: "CCOc1ccc2c(-c3ccnc(Nc4cc(OC)cc(C(F)(F)F)c4)n3)cnn2n1"
Reply text: 81.2

Inquiry: Request: "COc1cc(N2CCN(C(C)C)CC2)ccc1Nc1nc(Nc2cccc3ncccc23)c2cc[nH]c2n1"
Reply text: 4.18

Inquiry: Request: CC1=C(C(=O)Nc2ccc3[nH]nc(C)c3c2)C(c2ccc(C(F)(F)F)cc2)CC(=O)N1 (stereo unspecified)
Reply text: 1.85

Inquiry: Request: "COc1ccc(-c2nn3ncccc3c2-c2ccnc(Nc3ccc(F)c(F)c3)n2)cc1"
Reply text: -1.03

Inquiry: Request: "COc1cccc(Nc2nccc(-c3cnn4ncccc34)n2)c1"
Reply text: 93.9

Inquiry: Request: "COC(=O)Nc1nc2cc(Oc3ccc(NC(=O)Nc4ccccc4)cc3)ccc2[nH]1"
Reply text: 1.75

Inquiry: Request: "O=C(O[C@H]1CN[C@H](C#Cc2cc3ncnc(Nc4ccc5c(cnn5Cc5ccccc5)c4)c3s2)C1)N1CCOCC1"
Reply text: -1.51

Inquiry: Request: "CCS(=O)(=O)c1ccc(OC)c(Nc2ncc(-c3cccc(C(C)=O)c3)o2)c1"
Reply text: 28.6

Inquiry: Request: "COC(=O)Nc1nc2ccc(Oc3ccc(NC(=O)Nc4cc(C(F)(F)F)ccc4F)cc3)cc2s1"
Reply text: 0.47

Inquiry: Request: "NS(=O)(=O)c1cccc(N/C=C2\C(=O)Nc3ccccc32)c1"
Reply text: 2.13

Inquiry: Request: "CCS(=O)(=O)c1ccc(OC)c(Nc2ncc(-c3cccc(F)c3)o2)c1"
Reply text: 13

Inquiry: Request: "Cc1ccc(-c2cc3c(NC(=O)C4CC4)ncnc3o2)cc1"
Reply text: -0.87

Inquiry: Request: "COc1ccc(Nc2ncc(-c3ccccc3)o2)cc1OC"
Reply text: 0.23

Inquiry: Request: "COc1ccc2ncn(-c3cc(O[C@H](C)c4ccccc4C(F)(F)F)c(C(N)=O)s3)c2c1"
Reply text: 0.34

Inquiry: Request: "N#Cc1ccc2c(-c3ccnc(NC4CC4)n3)c(-c3ccc(F)cc3)nn2c1"
Reply text: -0.43

Inquiry: Request: "CCN1CCC(C(=O)Nc2n[nH]c3nnc(-c4cccc(F)c4F)cc23)CC1"
Reply text: -0.21
